compounds and their reported pIC50
System: NCH82
Assay: Compound was evaluated for inhibitory activity against H82 small cell lung carcinoma.
Type: functional, cell-based
Details: Homo sapiens
pIC50: −log10 of the molar value.
Quantity: pIC50

>>> df
                              input_smiles  numeric_readout
0  C(CCCNCCCNCC1CCCCCC1)CCCNCCCNCC1CCCCCC1             5.82
1                      C#CCNCCCNCCCNCCCNCC             5.28
2                CCNCCCNCCCNCCCNCC1CCCCCC1             5.77
3                    CCNCCCNCCCNCCCNCC1CC1             6.15
4            CCNCCCNCCCCCCCNCCCNCC1CCCCCC1             5.05

---

Test system: Trypanosoma brucei
Assay: Compound was evaluated for growth brucei LAB 110 strain.
Assay type: functional, organism-based
compounds and their reported IC50
Quantity: IC50

>>> df
                              input_smiles              system  quantity    result
0                CCNCCCNCCCNCCCNCC1CCCCCC1  Trypanosoma brucei      IC50  > 100 µM
1  C(CCCNCCCNCC1CCCCCC1)CCCNCCCNCC1CCCCCC1  Trypanosoma brucei      IC50  0.125 µM
2                      C#CCNCCCNCCCNCCCNCC  Trypanosoma brucei      IC50  > 100 µM
3            CCNCCCNCCCCCCCNCCCNCC1CCCCCC1  Trypanosoma brucei      IC50     18 µM
4    c1ccc(CNCCCNCCCCCCCNCCCNCc2ccccc2)cc1  Trypanosoma brucei      IC50   14.5 µM
5                    CCNCCCNCCCNCCCNCC1CC1  Trypanosoma brucei      IC50  > 100 µM

---

compounds and their reported pIC50
System: Trypanosoma brucei
Assay: Compound was evaluated for growth brucei K269 strain.
Assay type: functional, organism-based
pIC50: −log10 of the molar value.
Quantity: pIC50

                              input_smiles  value_prefix  numeric_readout
0    c1ccc(CNCCCNCCCCCCCNCCCNCc2ccccc2)cc1             =             4.91
1                    CCNCCCNCCCNCCCNCC1CC1             <             4.00
2                CCNCCCNCCCNCCCNCC1CCCCCC1             <             4.00
3                      C#CCNCCCNCCCNCCCNCC             <             4.00
4            CCNCCCNCCCCCCCNCCCNCC1CCCCCC1             =             4.68
5  C(CCCNCCCNCC1CCCCCC1)CCCNCCCNCC1CCCCCC1             =             6.16

These entries and their values trace back to ChEMBL document CHEMBL1128933.
